Examples of sequences with documented phosphorylation enrichment follow.
# Test system: AncSZ
# experiment.summary: phosphorylation enrichment, bacterial display (enrichment ratio); higher = better substrate or ligand; peptides without Tyr show the background;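 also: 11-residue human phosphosite peptides and single-mutation variants displayed on the E. coli surface, counted by deep sequencing, each peptide's frequency after selection divided by its frequency in the unselected input library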;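 also: frequency after pTyr selection over input frequency; kinase dosed for 20-30% of maximal phosphorylation in three min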
# output: bare number, no unit

Sample answers from the record:
QAFSWYQHQRA [NDST1_Y714_R709Q_YF]: 1.61
PLQKTYNFNML [SLC4A1_Y553_V557M_YF]: 0.801
LVRAFYCERRR [CARD11_Y970]: 0.684
KVMANYMFKAG [MAML2_Y513_YF]: 0.638
DFDNLYFWDQD [ERBB2_Y1221_A1216D_YF]: 2.2

Req: For the sequence MYDKEYYSVHN [MET_Y1234] , what phosphorylation enrichment is on record?
Resp: 2.1

Req: Also ALMGPYHGQVL [HADHA_Y343_L342P] , if possible.
Resp: 0.544

Req: Also VIKDKYPKARF [APTX_Y209_YF] , if possible.
Resp: 0.455

Req: Also TDLAYYLVRKG [ASL_Y376] , if possible.
Resp: 0.963

Req: Also QMVGMYAFSYM [AVPR2_Y124_S126F] , if possible.
Resp: 2.25

Req: Also VTQEQYELHCE [CBL_Y368_Y371H] , if possible.
Resp: 1.2

Req: Also NDLMEYPKQHG [ASS1_Y163_A164P] , if possible.
Resp: 0.738

Req: Also NPQKSYFICLF [WAS_Y83_R86C_YF] , if possible.
Resp: 1.1

Req: Also VTVLDYEKIGK [SYT1_Y365_D366E] , if possible.
Resp: 0.783

Req: Also VITDFYVDMKF [MPP4_Y567_YF] , if possible.
Resp: 1.23

Req: Also AVAFVYYKSIG [ADGRL4_Y301] , if possible.
Resp: 1.18

Req: Also FLAVGYHQPHI [IDS_Y225_K227Q] , if possible.
Resp: 0.559

Req: Also NNKKDYYDMYE [SLC26A3_Y526_K521N] , if possible.
Resp: 1.47

Req: Also KHCEDYVFSFN [DSC1_Y846_C848F_YF] , if possible.
Resp: 1.75

Req: Also ELELLYPDRNS [NYX_Y284_L285P] , if possible.
Resp: 1.17

Req: Also RNEAFYDTFST [EFCAB3_Y372_S370A] , if possible.
Resp: 1.32

Req: Also AGTILYHAHLD [ASS1_Y291] , if possible.
Resp: 0.591

Req: Also AWVARYIFKRL [LPCAT3_Y348] , if possible.
Resp: 1.26

----------
# experimental.target: FGFR3 (UniProt P22607)
# Sequence (P22607 whole entry, looked up): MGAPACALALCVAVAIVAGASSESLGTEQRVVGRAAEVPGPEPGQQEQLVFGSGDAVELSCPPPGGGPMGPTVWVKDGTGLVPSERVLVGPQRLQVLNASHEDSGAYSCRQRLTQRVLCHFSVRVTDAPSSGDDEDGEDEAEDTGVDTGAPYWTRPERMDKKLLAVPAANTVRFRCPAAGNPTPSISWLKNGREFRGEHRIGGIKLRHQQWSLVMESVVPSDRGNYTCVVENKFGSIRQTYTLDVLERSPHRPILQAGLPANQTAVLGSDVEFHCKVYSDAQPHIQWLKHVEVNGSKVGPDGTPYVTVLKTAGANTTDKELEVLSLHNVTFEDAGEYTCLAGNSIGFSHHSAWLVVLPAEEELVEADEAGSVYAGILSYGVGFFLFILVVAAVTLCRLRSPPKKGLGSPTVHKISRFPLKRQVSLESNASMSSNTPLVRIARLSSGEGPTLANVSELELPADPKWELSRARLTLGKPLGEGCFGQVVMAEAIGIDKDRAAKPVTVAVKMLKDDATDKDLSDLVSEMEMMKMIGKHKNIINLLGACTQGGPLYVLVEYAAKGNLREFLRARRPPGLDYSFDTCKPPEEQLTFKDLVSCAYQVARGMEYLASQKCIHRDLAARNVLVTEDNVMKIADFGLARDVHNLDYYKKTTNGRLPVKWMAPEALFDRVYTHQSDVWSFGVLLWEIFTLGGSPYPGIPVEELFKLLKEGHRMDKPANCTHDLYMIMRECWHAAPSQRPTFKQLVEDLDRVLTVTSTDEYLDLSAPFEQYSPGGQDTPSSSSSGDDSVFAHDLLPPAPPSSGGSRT
# experiment.summary: phosphorylation enrichment, bacterial display (enrichment ratio); higher = better substrate or ligand; peptides without Tyr show the background
measure.name: phosphorylation enrichment
# output: bare number, no unit

Sample answers from the record:
QADVTYVNTQL [MERTK_Y872_I871T]: 0.606
KAIDMYLMGCF [GABRB2_Y308]: 1.04
IGGHAYGDQYR [IDH1_Y135_R132G]: 0.382
NALVQYQEMEK [BBS4_Y395_A393V]: 0.721
LQLLGHRPVFS [CHST6_Y358_Y358H_YF]: 0.785

Req: For the sequence NPQKSYFIHLY [WAS_Y83_R86H] , what phosphorylation enrichment is on record?
Resp: 0.782

Req: Also AEDKPYAELWM [MPI_Y46] , if possible.
Resp: 1.34
